Recorded furin cleavage Z-score for the following sequences
- measured_target: furin, P09958;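 also: purified furin at 1:10 enzyme:substrate in 50 mM HEPES pH 7.5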
- Sequence (P09958 whole entry): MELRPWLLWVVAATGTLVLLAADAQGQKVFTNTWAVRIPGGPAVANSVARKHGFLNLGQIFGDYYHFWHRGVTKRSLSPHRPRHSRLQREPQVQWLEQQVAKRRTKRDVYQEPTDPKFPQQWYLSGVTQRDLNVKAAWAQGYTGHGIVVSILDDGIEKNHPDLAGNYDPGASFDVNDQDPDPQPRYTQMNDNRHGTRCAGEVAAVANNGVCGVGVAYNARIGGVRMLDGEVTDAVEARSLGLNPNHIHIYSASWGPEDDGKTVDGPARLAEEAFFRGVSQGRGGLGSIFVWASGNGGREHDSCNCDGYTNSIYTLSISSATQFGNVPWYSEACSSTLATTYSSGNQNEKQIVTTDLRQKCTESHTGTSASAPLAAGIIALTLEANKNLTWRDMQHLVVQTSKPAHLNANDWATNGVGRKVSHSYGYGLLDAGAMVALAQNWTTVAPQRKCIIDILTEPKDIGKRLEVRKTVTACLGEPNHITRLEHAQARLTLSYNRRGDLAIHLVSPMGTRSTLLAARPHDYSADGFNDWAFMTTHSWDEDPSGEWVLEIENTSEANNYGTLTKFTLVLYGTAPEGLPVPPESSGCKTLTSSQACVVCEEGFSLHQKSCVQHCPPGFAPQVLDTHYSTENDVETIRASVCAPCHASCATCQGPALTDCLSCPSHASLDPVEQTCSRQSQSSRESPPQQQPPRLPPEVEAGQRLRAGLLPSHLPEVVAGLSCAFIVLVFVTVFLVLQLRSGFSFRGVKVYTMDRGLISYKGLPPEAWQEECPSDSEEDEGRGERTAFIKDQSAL
- experiment: furin cleavage Z-score vs untreated control; higher = more cleavage, active = 3.5 or more, inactive = 1 or less, 8 variable residues between constant flanks
- details: 7.5 min
The list shows a part of the results. No count for the full screen is at hand.
Give a plain numeric answer without units written out.

Use these answered entries as a reference point.
[[record]]
biopolymer_sequence = "CALVNLLPAIAGNASASA [HC1100]"
recorded_metric = "furin cleavage Z-score"
measured_value = 1.21

[[record]]
biopolymer_sequence = "CAAELATRSFAGNASASA [HC1333]"
recorded_metric = "furin cleavage Z-score"
measured_value = 2.09


Please look at the following sequence next.
Query: Which furin cleavage Z-score value belongs to CARRRRVVPEAGNASASA [FS-2082] ?
Reply: 1.92
